Target: T1, IL10Rα/IL2Rγ receptor (human) (UniProt Q13651)
T1 sequence (looked up) 1: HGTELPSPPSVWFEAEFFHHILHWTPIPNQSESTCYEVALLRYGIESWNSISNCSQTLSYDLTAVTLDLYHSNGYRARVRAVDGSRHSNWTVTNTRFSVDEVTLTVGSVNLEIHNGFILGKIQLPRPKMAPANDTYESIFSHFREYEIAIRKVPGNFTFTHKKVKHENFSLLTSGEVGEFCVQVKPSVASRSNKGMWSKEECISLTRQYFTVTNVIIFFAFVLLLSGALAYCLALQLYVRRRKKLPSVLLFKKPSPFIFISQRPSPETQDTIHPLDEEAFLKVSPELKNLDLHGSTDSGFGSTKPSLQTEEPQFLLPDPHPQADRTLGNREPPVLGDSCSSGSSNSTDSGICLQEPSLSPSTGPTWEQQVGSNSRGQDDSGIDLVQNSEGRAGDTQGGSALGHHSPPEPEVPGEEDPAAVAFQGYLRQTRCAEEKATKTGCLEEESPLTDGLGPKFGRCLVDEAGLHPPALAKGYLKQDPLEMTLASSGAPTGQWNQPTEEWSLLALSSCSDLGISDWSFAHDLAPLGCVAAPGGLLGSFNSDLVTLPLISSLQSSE
T1 sequence (looked up) 2: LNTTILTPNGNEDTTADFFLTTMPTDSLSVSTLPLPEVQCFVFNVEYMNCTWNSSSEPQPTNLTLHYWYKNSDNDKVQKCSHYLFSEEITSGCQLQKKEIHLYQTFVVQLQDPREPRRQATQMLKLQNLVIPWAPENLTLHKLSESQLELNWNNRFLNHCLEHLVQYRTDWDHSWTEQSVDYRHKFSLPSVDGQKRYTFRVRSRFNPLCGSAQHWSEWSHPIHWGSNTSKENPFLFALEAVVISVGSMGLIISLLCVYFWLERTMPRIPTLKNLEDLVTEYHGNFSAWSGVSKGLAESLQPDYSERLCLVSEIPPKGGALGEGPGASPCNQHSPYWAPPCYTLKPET
Assay: cell-based or functional assay
As shown below, each of these binders has a reported Granzyme B secretion, CD8 T cells, at 100 µM value.
recorded-metric: Granzyme B secretion, CD8 T cells, at 100 µM (pg/mL)

[
  {
    "binder": "hIL10Ra_VHH14 - hIL2Rg_VHH19, linker GS, tag his (bispecific antibody, not shown: small tags and cut ends) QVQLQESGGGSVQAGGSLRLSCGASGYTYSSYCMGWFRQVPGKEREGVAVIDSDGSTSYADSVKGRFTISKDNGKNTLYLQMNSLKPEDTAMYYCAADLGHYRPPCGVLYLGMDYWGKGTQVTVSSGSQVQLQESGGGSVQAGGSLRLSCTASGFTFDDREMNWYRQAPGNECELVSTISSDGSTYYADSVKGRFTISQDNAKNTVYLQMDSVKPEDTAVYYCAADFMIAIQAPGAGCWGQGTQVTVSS",
    "value": 99900
  },
  {
    "binder": "hIL10Ra_VHH14 - hIL2Rg_VHH19, No linker, tag his (bispecific antibody, not shown: small tags and cut ends) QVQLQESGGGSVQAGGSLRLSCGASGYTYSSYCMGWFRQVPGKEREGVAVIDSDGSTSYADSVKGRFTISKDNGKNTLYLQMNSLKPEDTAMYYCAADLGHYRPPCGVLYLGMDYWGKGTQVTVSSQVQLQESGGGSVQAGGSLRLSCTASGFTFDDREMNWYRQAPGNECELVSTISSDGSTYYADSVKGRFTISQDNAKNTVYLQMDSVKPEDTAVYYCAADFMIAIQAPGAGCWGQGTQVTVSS",
    "value": 74300
  },
  {
    "binder": "hIL10Ra_VHH14 - hIL2Rg_VHH19, linker GGGS, tag his (bispecific antibody, not shown: small tags and cut ends) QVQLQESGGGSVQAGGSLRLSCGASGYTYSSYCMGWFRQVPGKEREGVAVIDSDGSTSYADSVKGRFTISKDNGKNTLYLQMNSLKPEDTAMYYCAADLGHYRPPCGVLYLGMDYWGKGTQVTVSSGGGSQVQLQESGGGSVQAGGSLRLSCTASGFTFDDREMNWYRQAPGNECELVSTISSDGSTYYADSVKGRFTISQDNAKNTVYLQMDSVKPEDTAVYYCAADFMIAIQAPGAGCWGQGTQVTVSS",
    "value": 94600
  },
  {
    "binder": "hIL10Ra_VHH14 - hIL2Rg_VHH19, linker GGGS, tag Fc (bispecific antibody, not shown: a dimerising Fc or GST) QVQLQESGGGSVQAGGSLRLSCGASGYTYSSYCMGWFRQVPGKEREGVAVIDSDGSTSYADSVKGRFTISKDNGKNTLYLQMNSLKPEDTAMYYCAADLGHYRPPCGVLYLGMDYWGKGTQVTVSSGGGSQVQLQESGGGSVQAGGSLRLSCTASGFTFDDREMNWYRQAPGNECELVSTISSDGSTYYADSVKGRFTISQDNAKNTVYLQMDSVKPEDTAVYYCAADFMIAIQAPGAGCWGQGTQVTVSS",
    "value": 93300
  }
]
